- TARGET ENTITY: Nanoluciferase-BRD9 fusion protein (Homo sapiens (Human))
- ASSAY: SYO1 BRD9 NanoLuc degradation assay
- Assay type: cell-based
- REPORTED CONDITIONS: Table 5B; SYO-1 cells expressing 3×FLAG-NLuc-BRD9, 6 hours; read-out: SYO1 BRD9-NanoLuc degradation IC50
The entries below come with measured DC50 values attached.

MOLECULE	DC50
COc1cc(-c2cn(C)c(=O)c3cnccc23)cc(OC)c1CN(C)CCCn1cc(COCCOc2ccc3c(c2)C(=O)N(C2CCC(=O)NC2=O)C3=O)nn1 (centres unmarked) [Compound D284]	10 to 100 nM
COc1cc(-c2cc(C)c(=O)n(C)c2)cc(OC)c1CN1CCC2(C1)CN(c1ccc3c(c1)C(=O)N(C1CCC(=O)NC1=O)C3=O)C2 (centres unmarked) [Compound D337]	< 10 nM
COc1cc(-c2cn(C)c(=O)c3cnccc23)cc(OC)c1CN(C)C(=O)CCCCN1CCC2(CC(Oc3ccc4c(c3)C(=O)N(C3CCC(=O)NC3=O)C4=O)C2)C1 (centres unmarked) [Compound D263]	< 10 nM
COc1cc(-c2cn(C)c(=O)c3cnccc23)cc(OC)c1CN1CCC2(CC1)CN(C(=O)C#Cc1ccc3c(c1)C(=O)N(C1CCC(=O)NC1=O)C3=O)C2 (centres unmarked) [Compound D197]	< 10 nM
COc1cc(-c2cn(C)c(=O)c3cnccc23)cc(OC)c1CN1CC(CC(=O)N2CCC3(CC2)CN(c2ccc4c(c2)C(=O)N(C2CCC(=O)NC2=O)C4=O)C3)C1 (centres unmarked) [Compound D180]	< 10 nM

* * *

The entries below come with measured DC50 values attached.
- TARGET ENTITY: Nanoluciferase-BRD9 fusion protein (Homo sapiens (Human), UniProt Q9H8M2)
- Sequence (Q9H8M2 whole entry, the tested form may be a part): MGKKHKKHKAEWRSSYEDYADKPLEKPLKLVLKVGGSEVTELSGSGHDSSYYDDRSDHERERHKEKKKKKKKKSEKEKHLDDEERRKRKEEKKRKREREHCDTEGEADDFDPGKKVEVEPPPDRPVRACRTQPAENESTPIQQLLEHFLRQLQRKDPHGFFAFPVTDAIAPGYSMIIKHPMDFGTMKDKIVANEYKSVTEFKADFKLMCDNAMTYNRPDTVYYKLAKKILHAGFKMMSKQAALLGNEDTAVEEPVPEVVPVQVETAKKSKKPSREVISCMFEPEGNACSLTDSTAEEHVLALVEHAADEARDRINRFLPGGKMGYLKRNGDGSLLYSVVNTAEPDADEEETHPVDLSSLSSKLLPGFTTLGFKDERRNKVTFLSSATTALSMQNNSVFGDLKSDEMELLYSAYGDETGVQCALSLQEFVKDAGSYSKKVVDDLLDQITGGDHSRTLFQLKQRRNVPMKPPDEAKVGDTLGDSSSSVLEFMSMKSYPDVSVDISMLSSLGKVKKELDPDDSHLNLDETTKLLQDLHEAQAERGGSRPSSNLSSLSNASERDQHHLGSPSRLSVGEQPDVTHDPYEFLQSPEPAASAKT
- ASSAY: SYO1 BRD9 NanoLuc degradation assay
- Assay type: cell-based
- REPORTED CONDITIONS: Table 5A; SYO-1 cells expressing 3×FLAG-NLuc-BRD9, 6 hours; read-out: SYO1 BRD9-NanoLuc degradation IC50

MOLECULE	DC50
COc1cc(-c2cn(C)c(=O)c3cnccc23)cc(OC)c1CN1CCC2(CC1)CC(NC(=O)CCOCCOc1ccc3c(c1)C(=O)N(C1CCC(=O)NC1=O)C3=O)C2 (centres unmarked) [Compound D116]	10 to 100 nM
COc1cc(-c2cn(C)c(=O)c3cnccc23)cc(OC)c1CN1CCCC(OCc2cn(CCCOc3ccc4c(c3)C(=O)N(C3CCC(=O)NC3=O)C4=O)nn2)C1 (centres unmarked) [Compound D151]	10 to 100 nM
COc1cc(-c2cn(C)c(=O)c3cnccc23)cc(OC)c1CN1CCC12CCN(C(=O)CCOCCOc1ccc3c(c1)C(=O)N(C1CCC(=O)NC1=O)C3=O)C2 (centres unmarked) [Compound D127]	100 to 1000 nM
COc1cc(-c2cn(C)c(=O)c3cnccc23)cc(OC)c1CN(C)CC12CC(NC(=O)CCOCCOCCNc3cccc4c3C(=O)N(C3CCC(=O)NC3=O)C4=O)(C1)C2 (centres unmarked) [Compound D68, formic acid]	100 to 1000 nM
COc1cc(-c2cc(C)c(=O)n(C)c2)cc(OC)c1CN1CC(C(=O)NCCCCCCCCNc2cccc3c2C(=O)N(C2CCC(=O)NC2=O)C3=O)C1 (centres unmarked) [Compound D16, formic acid]	< 10 nM
COc1cc(-c2cn(C)c(=O)c3cnccc23)cc(OC)c1CN1CC(C(=O)NCCOCCOCCNc2cccc3c2C(=O)N(C2CCC(=O)NC2=O)C3=O)C1 (centres unmarked) [Compound D7, formic acid]	10 to 100 nM
COc1cc(-c2cn(C)c(=O)c3cnccc23)cc(OC)c1CN1CC2(C1)CN(C(=O)CCCOc1cccc3c1C(=O)N(C1CCC(=O)NC1=O)C3=O)C2 (centres unmarked) [Compound D32]	10 to 100 nM
COc1cc(-c2cn(C)c(=O)c3cnccc23)cc(OC)c1CN1CC2(C1)CN(C(=O)C#Cc1ccc3c(c1)C(=O)N(C1CCC(=O)NC1=O)C3=O)C2 (centres unmarked) [Compound D81]	< 10 nM
COc1cc(-c2cn(C)c(=O)c3cnccc23)cc(OC)c1CN1CC(S(=O)(=O)NCCN2CCN(c3ccc4c(c3)C(=O)N(C3CCC(=O)NC3=O)C4=O)CC2)C1 (centres unmarked) [Compound D24, formic acid]	10 to 100 nM
COc1cc(-c2cn(C)c(=O)c3cnccc23)cc(OC)c1CN1CC(CC(=O)N2CC3(CCN(c4ccc5c(c4)C(=O)N(C4CCC(=O)NC4=O)C5=O)C3)C2)C1 (centres unmarked) [Compound D77]	100 to 1000 nM
COc1cc(-c2cn(C)c(=O)c3cnccc23)cc(OC)c1CNCCOCC(=O)N1CC(COc2ccc3c(c2)C(=O)N(C2CCC(=O)NC2=O)C3=O)C1 (centres unmarked) [Compound D74, formic acid]	100 to 1000 nM
